- assayed.target: T1, human GPRC5D protein (human, UniProt Q9NZD1 1-345)
- T1 construct: also called hGPRC5D
- T1 sequence (Q9NZD1 whole entry): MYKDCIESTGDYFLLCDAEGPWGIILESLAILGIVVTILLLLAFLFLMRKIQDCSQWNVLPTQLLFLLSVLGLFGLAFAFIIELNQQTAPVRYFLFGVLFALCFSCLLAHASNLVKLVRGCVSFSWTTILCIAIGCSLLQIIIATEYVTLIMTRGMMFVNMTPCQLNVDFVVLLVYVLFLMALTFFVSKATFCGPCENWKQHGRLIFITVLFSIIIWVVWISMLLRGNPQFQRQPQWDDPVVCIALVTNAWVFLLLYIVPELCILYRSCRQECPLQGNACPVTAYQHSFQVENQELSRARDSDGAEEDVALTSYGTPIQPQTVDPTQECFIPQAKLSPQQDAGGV
- assay.text: FACS, subclone supernatant on H929 cells
experimental.endpoint: MFI (MFI)
Report the figure in MFI without appending any unit label.

Answer with the recorded MFI for the binder listed here: mouse anti-hGPRC5D antibody mu-128 (antibody, V domains shown, Tested as subcloned hybridoma culture supernatant) VH: DVQLVESGGGLVQPGGSRKVSCAASGFTFSSFGMHWVRQAPEKGLEWVAYISRGSSTIYYADTVKGRFTISRDNPKNTLFLQMTSLRSEDTAMYYCARSGYGSSSYYFDYWGQGTTLTVSS VL: ENVLTQSPAIMSASPREKVTMTCRASSSIRSSYLHWYQQKSGASPKLWIYSTSNLASGVPARFSGSGSGTSYSLTISSVEAEDAATYYCQQFSGYPLTFGGGTKLEIK
15700

The reported measurements were obtained from patent US20260159583A1.
